experimental system: T1, wild type Rb pocket domain (Rb^P) (human, UniProt P06400 380-788)
T1 sequence: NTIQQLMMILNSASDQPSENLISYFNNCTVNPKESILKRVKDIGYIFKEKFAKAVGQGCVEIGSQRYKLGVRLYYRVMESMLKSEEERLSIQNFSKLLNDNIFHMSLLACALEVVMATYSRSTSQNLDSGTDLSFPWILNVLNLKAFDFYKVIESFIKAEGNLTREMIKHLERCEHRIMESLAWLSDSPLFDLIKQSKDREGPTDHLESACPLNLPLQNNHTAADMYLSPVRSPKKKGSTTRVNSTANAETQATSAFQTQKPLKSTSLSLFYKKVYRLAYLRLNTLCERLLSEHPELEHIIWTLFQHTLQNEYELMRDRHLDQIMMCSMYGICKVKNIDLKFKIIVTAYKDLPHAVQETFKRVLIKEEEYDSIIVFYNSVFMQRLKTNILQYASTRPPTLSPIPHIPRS
protocol description: fluorescence polarisation
Where no end group is shown, it is not given here. TMR = tetramethyl rhodamine dye
parameter: Kd (nM)

1. {TMR}-GEGIRDLFDCDFGDLTPLD [TMR-E2F1^TD (peptide of the E2F1 transactivation domain, N-labeled with tetramethyl rhodamine)]: 14
